Data provenance is patent US20160082015A1.

system: HB9::GFP MNs; experiment: Mouse MN survival assay, trophic factor withdrawal; conditions: trophic factors removed and compound added day 4, fixed day 7
Structures can show the parent of a compound that is named as a salt.
ENDPOINT NAME: survival of HB9::GFP MNs

COMPOUND	SYSTEM	RESULT VALUE
c1cnc2c(c1)ccc1cccnc12 [1,10-Phenanthroline monohydrate]	HB9::GFP MNs	promoted the survival
CC(C)(C)c1cc(C=C(C#N)C#N)cc(C(C)(C)C)c1O [Tyrphostin A9]	HB9::GFP MNs	promoted the survival
CCCCCCC(C)(C)c1ccc([C@@H]2C[C@H](O)CC[C@@H]2CCCO)c(O)c1 [CP55940]	HB9::GFP MNs	promoted the survival
CCN(CC)CCCC(C)Nc1c2ccc(Cl)cc2nc2ccc(OC)cc12 (stereo not shown) [Quinacrine dihydrochloride dihydrate]	HB9::GFP MNs	scored as hits
CC1(C)C=CC(=O)[C@@]2(C)C1CC(=O)[C@]1(C)C2CCC2(C)C(c3ccoc3)OC(=O)C3OC321 (stereo partly shown) [Deacetoxy-7-oxisogedunin]	HB9::GFP MNs	scored as hits
